target: SIRT1 (Homo sapiens); experiment: Mass spectrometry based SIRT1 deacetylase activation assay (acetylated p53-derived peptide substrate); format: biochemical; details: 0.5 μM peptide substrate, 120 μM βNAD+, 10 nM SIRT1, 25 minutes at 25° C.
Sequence (Q96EB6 whole entry): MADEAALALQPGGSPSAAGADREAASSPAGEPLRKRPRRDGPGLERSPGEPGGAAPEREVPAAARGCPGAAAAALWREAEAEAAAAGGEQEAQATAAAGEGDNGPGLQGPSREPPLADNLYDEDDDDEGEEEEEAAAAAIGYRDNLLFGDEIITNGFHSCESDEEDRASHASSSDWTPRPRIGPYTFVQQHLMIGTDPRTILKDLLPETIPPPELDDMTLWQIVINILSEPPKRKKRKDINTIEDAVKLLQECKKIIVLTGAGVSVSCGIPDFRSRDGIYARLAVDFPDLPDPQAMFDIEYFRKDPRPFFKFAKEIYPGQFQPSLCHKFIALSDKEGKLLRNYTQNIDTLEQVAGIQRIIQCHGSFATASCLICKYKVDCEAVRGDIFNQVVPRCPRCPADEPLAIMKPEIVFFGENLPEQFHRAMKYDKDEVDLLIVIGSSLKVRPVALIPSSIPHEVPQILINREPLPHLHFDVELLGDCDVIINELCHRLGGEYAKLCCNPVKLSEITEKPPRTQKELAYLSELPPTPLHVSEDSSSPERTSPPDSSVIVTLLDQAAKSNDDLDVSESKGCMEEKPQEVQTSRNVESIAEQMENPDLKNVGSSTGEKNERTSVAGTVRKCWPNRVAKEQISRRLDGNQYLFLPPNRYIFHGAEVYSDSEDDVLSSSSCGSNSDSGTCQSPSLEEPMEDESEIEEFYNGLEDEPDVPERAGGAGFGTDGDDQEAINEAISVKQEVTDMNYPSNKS
recorded_metric: EC1.5

INSERT INTO measurements (molecular_string, test_result) VALUES
  ('O=C(Nc1nccs1)c1cccc2[nH]c(-c3ccc(OC[C@H](O)CO)cc3C(F)(F)F)nc12', 'A (EC1.5<1.0 uM)'),
  ('O=C(Nc1ccccn1)c1cc(N2CCOCC2)cc2[nH]c(-c3ccc(Cl)cc3C(F)(F)F)nc12', 'A (EC1.5<1.0 uM)'),
  ('O=C(Nc1cccnc1)c1cncc2[nH]c(-c3ccc(F)cc3C(F)(F)F)nc12', 'A (EC1.5<1.0 uM)');
